Listed here are compounds together with their documented log10 of IC50.
biological target: Recombinant truncated stromelysin (human sequence) (Homo sapiens, UniProt P08254); construct: made in house; host or cells: E. coli; assay: Determination of Stromelysin Inhibition (cleavage of thiopeptide ester substrate, DTNB, 405 nm); assay type: biochemical; details: Inhibitory potencies against stromelysin; 30 min assay at ambient temperature, pH 6.5; read-out: IC50
Sequence (P08254 100-272 limits assumed): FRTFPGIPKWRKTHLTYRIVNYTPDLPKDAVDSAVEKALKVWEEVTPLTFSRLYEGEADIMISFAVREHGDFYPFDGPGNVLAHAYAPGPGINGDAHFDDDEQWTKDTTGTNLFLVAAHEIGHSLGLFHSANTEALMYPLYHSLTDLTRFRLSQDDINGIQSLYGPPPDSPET
Reported property: log10 of IC50 (log10 of the value in nM)

[
  {
    "Compound": "CNC(=O)[C@@H]1Cc2ccc(cc2)OCCCC[C@@H](C(=O)NO)[C@@H](CC(C)C)C(=O)N1 [8 syn]",
    "log10 of IC50": 2.76
  },
  {
    "Compound": "Cc1ccc(CCC[C@H]2C(=O)N[C@H](C(=O)NCCN(C)C)Cc3ccc(cc3)OCCCC[C@@H]2C(=O)NO)cc1 [Example 38]",
    "log10 of IC50": -0.25
  },
  {
    "Compound": "CNC(=O)[C@@H]1Cc2ccc(cc2)OCCC[C@H](C(=O)NO)[C@@H](CC(C)C)C(=O)N1 [Example 10]",
    "log10 of IC50": 0.89
  },
  {
    "Compound": "CNC(=O)[C@@H]1Cc2ccc(cc2)NC(=O)CCCC[C@H](C(=O)NO)[C@@H](CC(C)C)C(=O)N1 [Example 16]",
    "log10 of IC50": 1.36
  },
  {
    "Compound": "CC(C)C[C@H]1C(=O)N[C@H](C(=O)N2CCC[C@H]2C(=O)OCc2ccccc2)Cc2ccc(cc2)OCCCCC[C@@H]1C(=O)NO [Example 24]",
    "log10 of IC50": 0.95
  },
  {
    "Compound": "CC(C)C[C@H]1C(=O)N[C@H](C(=O)Nc2ccccn2)Cc2ccc(cc2)OCCCC[C@@H]1C(=O)NO [Example 6]",
    "log10 of IC50": 0.41
  },
  {
    "Compound": "CNC(=O)[C@@H]1Cc2ccc(cc2)OCCC[C@H](C(=O)O)[C@@H](CC(C)C)C(=O)N1 [Example 9]",
    "log10 of IC50": 3.32
  }
]
